Target Entity: HER2 (A775_G776insYVMA) expressing Ba/F3 stable cell line (Homo sapiens, UniProt P04626, DUP772-775, cells depend on it)
Sequence (P04626 with tags, fused parts or gaps DUP772-775): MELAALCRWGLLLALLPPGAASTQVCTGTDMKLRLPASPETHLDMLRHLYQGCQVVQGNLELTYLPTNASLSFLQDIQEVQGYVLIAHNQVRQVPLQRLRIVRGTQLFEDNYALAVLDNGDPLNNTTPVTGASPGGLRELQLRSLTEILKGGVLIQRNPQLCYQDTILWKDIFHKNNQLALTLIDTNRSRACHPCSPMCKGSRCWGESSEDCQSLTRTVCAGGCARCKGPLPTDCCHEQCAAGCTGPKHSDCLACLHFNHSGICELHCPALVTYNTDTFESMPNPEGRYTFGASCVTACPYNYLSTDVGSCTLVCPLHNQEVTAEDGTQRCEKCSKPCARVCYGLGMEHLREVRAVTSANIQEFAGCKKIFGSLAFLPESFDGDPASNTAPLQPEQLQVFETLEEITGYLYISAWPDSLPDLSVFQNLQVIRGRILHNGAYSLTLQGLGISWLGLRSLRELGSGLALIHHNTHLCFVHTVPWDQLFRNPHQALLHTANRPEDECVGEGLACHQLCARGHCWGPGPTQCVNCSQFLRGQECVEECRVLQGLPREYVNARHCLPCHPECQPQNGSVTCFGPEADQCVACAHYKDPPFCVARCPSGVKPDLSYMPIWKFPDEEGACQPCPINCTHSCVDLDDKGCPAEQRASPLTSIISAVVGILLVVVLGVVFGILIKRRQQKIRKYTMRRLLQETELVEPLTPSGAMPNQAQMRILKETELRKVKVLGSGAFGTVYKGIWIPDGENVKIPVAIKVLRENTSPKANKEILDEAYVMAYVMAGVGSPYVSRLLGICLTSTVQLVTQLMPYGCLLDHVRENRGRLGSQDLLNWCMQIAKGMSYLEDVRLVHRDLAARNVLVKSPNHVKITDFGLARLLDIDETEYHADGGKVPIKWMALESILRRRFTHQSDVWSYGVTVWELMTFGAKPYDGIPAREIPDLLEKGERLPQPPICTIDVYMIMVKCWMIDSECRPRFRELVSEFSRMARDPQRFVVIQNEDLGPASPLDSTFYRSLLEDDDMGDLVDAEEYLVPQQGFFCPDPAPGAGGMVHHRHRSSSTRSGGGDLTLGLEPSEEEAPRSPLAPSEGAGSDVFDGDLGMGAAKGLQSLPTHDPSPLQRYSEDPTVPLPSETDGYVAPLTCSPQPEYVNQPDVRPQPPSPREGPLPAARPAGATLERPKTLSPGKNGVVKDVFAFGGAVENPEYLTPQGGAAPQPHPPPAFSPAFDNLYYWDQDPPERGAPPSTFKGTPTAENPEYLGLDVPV
Protocol: Cellular proliferation (Alamar Blue) assay, HER2 A775_G776insYVMA Ba/F3
Assay type: cell-based
Measurement Conditions: 72 hr, read-out: YVMA IC50
Counter-ions that a name gives are not always drawn.
Rule for this label: Criterion met means GI50 is less than 3 µM; Criterion not met means GI50 is at least 3 µM.

Known results for compounds:
C=CC(=O)Nc1cc(Nc2nc(Nc3cnn(C)c3)ncc2Cl)cc2ccccc12 [Compound 297] ... Criterion not met
C=CC(=O)Nc1ccc(F)c(Nc2nc(Nc3cnn(C)c3)ncc2-c2cccc(OC(F)(F)F)c2)c1 [Compound 96, trifluoroacetate] ... Criterion not met
C=CC(=O)Nc1ccc(F)c(Nc2nc(Nc3cnn(C)c3)ncc2-c2ccc(C(C)(C)C)cc2)c1 [Compound 76, trifluoroacetate] ... Criterion not met
C=CC(=O)Nc1ccc(F)c(Nc2nc(Nc3cnn(C)c3)ncc2-c2ccnc(C(F)(F)F)c2)c1 [Compound 83] ... Criterion met
C=CC(=O)Nc1ccc(OC)c(Oc2nc(Nc3cnn(C)c3)ncc2Cl)c1 [Compound 172] ... Criterion not met

Input: Lab log: compare recorded GI50 with 3 µM; is it strictly lower for C=CC(=O)Nc1cccc(Nc2nc(Nc3cnn(C)c3)ncc2NS(=O)(=O)c2ccccc2)c1 [Compound 29] ?
Output: Criterion not met

Input: Lab log: compare recorded GI50 with 3 µM; is it strictly lower for C=CC(=O)Nc1ccc(F)c(Nc2nc(Nc3cnn(C)c3)ncc2-c2cccnc2)c1 [Compound 84] ?
Output: Criterion met
